I'd be grateful if you could share measured zone of inhibition at 50 µg/disc for these entries.
# Tested on: Staphylococcus aureus
# Experiment description: Antibacterial activity against Staphylococcus aureus NCTC 6751 at 50 ug/disk
# Assay type: functional
# Study conditions: read-out: IZ
One number for each entry, in mm.

Below, 9 compounds whose answers are already recorded.
• CCCCCCCCCCCCCC1CC(=O)NCCCN(C)CCCCN(C)CCCN1 (stereo not given) = 10
• CCCCCCCC(O)CCCCCC1CC(=O)NCCCN(C)CCCCN(C)CCCN1C (stereo not given) = 8
• CCCCCCCCCC(O)CCCCCC1CC(=O)NCCCN(C)CCCCN(C)CCCN1 (stereo not given) = 9
• CCCCCCCCCCCCCCCC1CC(=O)NCCCN(C)CCCCN(C)CCCN1 (stereo not given) = 12
• CCCCCCCCCCCCCCCC1CC(=O)NCCCN(C)CCCCNCCCN1C (stereo not given) = 11
• CCCCCCCCCC(O)CCCCCC1CC(=O)NCCCN(C)CCCCN(C)CCCN1C (stereo not given) = 9
• CCCCCCCCCCCCCCCC1CC(=O)NCCCN(C)CCCCN(C)CCCN1C (stereo not given) = 11
• CCCCCCCCCCCC1CC(=O)NCCCN(C)CCCCN(C)CCCN1C (stereo not given) = 10
• O=C(N[C@H](CO)[C@H](O)c1ccc([N+](=O)[O-])cc1)C(Cl)Cl = 24

Then there is this compound:
Give its zone of inhibition at 50 µg/disc value. Item: CCCCCCCCCCCCCCCC1CC(=O)NCCCNCCCCN(C)CCCN1C (stereo not given)
11

* * *

# Experiment description: Toxicity against brine shrimp
# Type: organism-based
# Study conditions: artemia, in vivo
Assign labels as follows, please: Y for LC50 below 20 mg/L; N for LC50 equal to or exceeding 20 mg/L.

Illustrative cases are given below, each with its answer.
- CCCCCCCCCCCCCCCC1CC(=O)NCCCN(C)CCCCNCCCN1C (stereo unspecified): Y
- CCCCCCCCCCCCCCCC1CC(=O)NCCCNCCCCN(C)CCCN1C (stereo unspecified): Y
- CCCCCCCCCCCCCC1CC(=O)NCCCN(C)CCCCN(C)CCCN1 (stereo unspecified): Y
- CCCCCCCC(O)CCCCCC1CC(=O)NCCCN(C)CCCCN(C)CCCN1C (stereo unspecified): N
- CCCCCCCCCC(O)CCCCCC1CC(=O)NCCCN(C)CCCCN(C)CCCN1C (stereo unspecified): N

Here's the next entry for you.
Threshold test, LC50 < 20 mg/L: CCCCCCCCCCCC1CC(=O)NCCCN(C)CCCCN(C)CCCN1C (stereo unspecified)
Y
